# Test system: ACHN renal
# protocol.details: NCI-60 one-dose screen, 48 h
# condition.label: 10 µM unless noted
This is part of a sample that, as a whole, favours compounds with a hit. Of some 83,000 tested, about 20% had one in any assay. Active and inactive are the calls of the source. Rule for the calls: active = growth percent below 10; inactive = the rest.
Possible outcomes: active, inactive

molecule: COC(=O)c1cccc(NC(=O)c2ccc(-c3cccc(N)c3)o2)c1
answer.label: inactive

molecule: O=C1Nc2c(ccc(Cl)c2Cl)/C1=C\c1ccc(C(F)(F)F)cc1
answer.label: inactive

molecule: COc1ccc(CN2c3ccccc3Oc3ccccc32)cc1F
answer.label: inactive

molecule: CCN1CCN(c2nc(NCCCNc3ccnc4cc(Cl)ccc34)c3ccccc3n2)CC1
answer.label: active

molecule: Cc1cc(C)nc(SC2=C(Nc3ccc(O)cc3)C(=O)N(Cc3ccccc3)C2=O)n1
answer.label: inactive

molecule: CC(C)CSc1nc(N)nc2c1ncn2C1OC(CO)C(O)C1O (centres undefined)
answer.label: inactive

molecule: CCOC(=O)n1cc(-c2nonc2-c2cn(C)c3ncccc23)c2ccccc21
answer.label: inactive

molecule: O=C1CSC(=S)N1CCc1ccc(O)cc1
answer.label: inactive

molecule: COc1cc(-c2nc3cc(Cl)c(Cl)cc3[nH]2)ccc1OCC(=O)N=Nc1c(O)[nH]c2ccccc12
answer.label: inactive

molecule: OCCNc1nccc(N2CCN(c3ccnc4cc(Cl)ccc34)CC2)n1
answer.label: inactive

molecule: CC1=C[C@H]2c3c(c(O)c(O)c4oc5ccccc5c(=O)c34)[C@H](c3cc(O)c(O)c4oc5ccccc5c(=O)c34)[C@H]2C(C)(C)C1
answer.label: active

molecule: COc1cccc(/C=N/NC(=O)c2ccccc2Nc2ccnc(C(F)(F)F)c2)c1O
answer.label: active

molecule: O=S(=O)(Nc1ccc(Br)c(Cl)c1)c1ccc(-c2cnc(C3CC3)o2)cc1
answer.label: inactive

molecule: Cn1cc(-c2nonc2-c2c[nH]c3ccccc23)c2cccnc21
answer.label: inactive

molecule: COc1ccc2cc(-c3nn(-c4ccc(C(=O)O)cc4)cc3CO)ccc2c1
answer.label: inactive

molecule: O=c1ccccc(-c2ccc(Br)cc2)c1O
answer.label: active

molecule: CCOC(=O)c1c(C(=O)OCC)c2cc(-c3ccn4c(C(=O)c5ccccc5)c(C(=O)OCC)c(C(=O)OCC)c4c3)ccn2c1C(=O)c1ccccc1
answer.label: inactive

molecule: COc1cc2c(cc1-c1c(C)noc1C)ncc1nc(C3CCOCC3)n([C@@H](C)COC(F)F)c12
answer.label: inactive

molecule: CC/C=C\C/C=C\C[C@H]1C/C=C2/C(=O)C=C[C@@H]2C/C=C\CCC(=O)O1
answer.label: active

molecule: Clc1ccc2c(NCCCCNc3nc(N4CCCCC4)nc4ccccc34)ccnc2c1
answer.label: active

molecule: Cc1ccc(NC(=O)/C=C/c2ccccc2)c(C(N)=O)c1
answer.label: inactive

molecule: CC[C@@H](C(=O)[C@@H](C)[C@@H](O)[C@H](C)[C@@H]1O[C@@H]([C@@H](CC)C(=O)O)CC[C@@H]1C)[C@H]1OC2(C=C[C@@H](O)[C@]3(CC[C@@](C)([C@H]4CC[C@](O)(CC)[C@H](C)O4)O3)O2)[C@H](C)C[C@@H]1C (some centres undefined)
answer.label: inactive

molecule: CN(C)CCCNc1c2ccccc2nc2ccccc12
answer.label: inactive

molecule: O=C1c2c(O)cc(O)cc2-c2c(-c3ccc(O)cc3)oc3cc(O)cc1c23
answer.label: active

molecule: COc1cccc(-c2nn(C(C)(C)C)cc2-c2ccnc(NCCCNS(=O)(=O)c3ccc(C)cc3)c2)c1
answer.label: inactive

molecule: O=C(/C=C/c1cc(CN2CCOCC2)c(O)c2ncccc12)c1cc(CN2CCOCC2)c(O)c2ncccc12
answer.label: active

molecule: CCn1c(Cc2ccccc2Nc2c(Cl)cccc2Cl)nnc1SCC(=O)NN1C(=O)/C(=C/c2cc(OC)c(O)c(OC)c2)SC1=S
answer.label: inactive

molecule: COc1ccc(CN2c3ccccc3Sc3ccccc32)c(C(F)(F)F)c1
answer.label: inactive

molecule: Fc1ccc(CNc2cccc3[nH]c(C(F)(F)F)nc23)cc1
answer.label: inactive
